// provenance: paper PMC8699473

assay: Long-term stability in spiked pooled human plasma; settings: validation standard 2xLLOV
Reported values of Long-term stability, 1 month, -20°C Accuracy [%] for individual entries
quantity-kind: Long-term stability, 1 month, -20°C Accuracy [%] (%)

INSERT INTO measurements (molecule, data_value) VALUES
  ('CNC(=O)c1ccccc1Sc1ccc2c(/C=C/c3ccccn3)n[nH]c2c1 [Axitinib]', 86.8),
  ('O=C1CN2Cc3c(ccc(Cl)c3Cl)N=C2N1 [Anagrelide]', 99.8),
  ('Cc1ccc(Nc2nccc(N(C)c3ccc4c(C)n(C)nc4c3)n2)cc1S(N)(=O)=O [Pazopanib]', 99.1),
  ('Nc1cccc2c1C(=O)N(C1CCC(=O)NC1=O)C2=O (centres unmarked) [Pomalidomide]', 90.4),
  ('N#CC[C@H](C1CCCC1)n1cc(-c2ncnc3[nH]ccc23)cn1 [Ruxolitinib]', 101.5),
  ('Cc1nc(Nc2ncc(C(=O)Nc3c(C)cccc3Cl)s2)cc(N2CCN(CCO)CC2)n1 [Dasatinib]', 99.2),
  ('CC(C)(C)c1nc(-c2cccc(NS(=O)(=O)c3c(F)cccc3F)c2F)c(-c2ccnc(N)n2)s1 [Dabrafenib]', 101.2),
  ('CNC(=O)c1ccc(N2C(=S)N(c3ccc(C#N)c(C(F)(F)F)c3)C(=O)C2(C)C)cc1F [Enzalutamide]', 92.7),
  ('COC(=O)N[C@@H](C)CNc1nccc(-c2cn(C(C)C)nc2-c2cc(Cl)cc(NS(C)(=O)=O)c2F)n1 [Encorafenib]', 100.7),
  ('C[C@H]1Oc2cc(cnc2N)-c2c(nn(C)c2C#N)CN(C)C(=O)c2ccc(F)cc21 [Lorlatinib]', 89.2),
  ('C#Cc1cccc(Nc2ncnc3cc(OCCOC)c(OCCOC)cc23)c1 [Erlotinib]', 102.3),
  ('COc1cc2nccc(Oc3ccc(NC(=O)Nc4cc(C)on4)c(Cl)c3)c2cc1OC [Tivozanib]', 101.4),
  ('O=C1CCC(N2C(=O)c3ccccc3C2=O)C(=O)N1 (centres unmarked) [Thalidomide]', 75.6),
  ('CCCS(=O)(=O)Nc1ccc(F)c(C(=O)c2c[nH]c3ncc(-c4ccc(Cl)cc4)cc23)c1F [Vemurafenib]', 102.1),
  ('CCc1cc2c(cc1N1CCC(N3CCOCC3)CC1)C(C)(C)c1[nH]c3cc(C#N)ccc3c1C2=O [Alectinib]', 87.1),
  ('O=C(c1ccc(F)c(F)c1Nc1ccc(I)cc1F)N1CC(O)([C@@H]2CCCCN2)C1 [Cobimetinib]', 100.8),
  ('CC1(C)CCC(CN2CCN(c3ccc(C(=O)NS(=O)(=O)c4ccc(NCC5CCOCC5)c([N+](=O)[O-])c4)c(Oc4cnc5[nH]ccc5c4)c3)CC2)=C(c2ccc(Cl)cc2)C1 [Venetoclax]', 102.9);

----------
assay: Long-term stability in spiked pooled human plasma; details: validation standard 2xLLOV
quantity-kind: Long-term stability, 2 month, -20°C Accuracy [%] (%)

INSERT INTO results (chem_smiles, data_value) VALUES
  ('CCc1cc2c(cc1N1CCC(N3CCOCC3)CC1)C(C)(C)c1[nH]c3cc(C#N)ccc3c1C2=O', 86.4),
  ('COC(=O)N[C@@H](C)CNc1nccc(-c2cn(C(C)C)nc2-c2cc(Cl)cc(NS(C)(=O)=O)c2F)n1', 111.7),
  ('CCN(CC)CCNC(=O)c1c(C)[nH]c(/C=C2\C(=O)Nc3ccc(F)cc32)c1C', 108.9),
  ('N#CC[C@H](C1CCCC1)n1cc(-c2ncnc3[nH]ccc23)cn1', 97.7);

----------
test: Autosampler stability of ready for injection samples; type: physicochemical, human; details: validation standard MOV
quantity-kind: Autosampler (72h, 4°C) Accuracy [%] (%)

INSERT INTO results (compound, quantity_kind, units_of_measure, data_value) VALUES
  ('CC[C@H](Nc1ncnc2[nH]cnc12)c1nc2cccc(F)c2c(=O)n1-c1ccccc1 [Idelalisib]', 'Autosampler (72h, 4°C) Accuracy [%]', '%', 97.1),
  ('Cc1nc(Nc2ncc(C(=O)Nc3c(C)cccc3Cl)s2)cc(N2CCN(CCO)CC2)n1 [Dasatinib]', 'Autosampler (72h, 4°C) Accuracy [%]', '%', 99.0),
  ('CNCc1ccc(-c2[nH]c3cc(F)cc4c3c2CCNC4=O)cc1 [Rucaparib]', 'Autosampler (72h, 4°C) Accuracy [%]', '%', 103.8),
  ('COc1cc2nccc(Oc3ccc(NC(=O)NC4CC4)c(Cl)c3)c2cc1C(N)=O [Lenvatinib]', 'Autosampler (72h, 4°C) Accuracy [%]', '%', 98.6),
  ('C#Cc1cccc(Nc2ncnc3cc(OCCOC)c(OCCOC)cc23)c1 [Erlotinib]', 'Autosampler (72h, 4°C) Accuracy [%]', '%', 98.3),
  ('CNC(=O)c1cc(Oc2ccc(NC(=O)Nc3ccc(Cl)c(C(F)(F)F)c3)cc2)ccn1 [Sorafenib]', 'Autosampler (72h, 4°C) Accuracy [%]', '%', 103.5),
  ('C=CC(=O)Nc1cc(Nc2nccc(-c3cn(C)c4ccccc34)n2)c(OC)cc1N(C)CCN(C)C [Osimertinib]', 'Autosampler (72h, 4°C) Accuracy [%]', '%', 100.3),
  ('CC(=O)c1c(C)c2cnc(Nc3ccc(N4CCNCC4)cn3)nc2n(C2CCCC2)c1=O [Palbociclib]', 'Autosampler (72h, 4°C) Accuracy [%]', '%', 96.9);

----------
experiment: Long-term stability in spiked pooled human plasma; conditions: validation standard ULOV
quantity-kind: Long-term stability, 6 weeks, 4°C, without daylight Accuracy [%]

INSERT INTO measurements (compound, data_value) VALUES
  ('COc1cc2nccc(Oc3ccc(NC(=O)Nc4cc(C)on4)c(Cl)c3)c2cc1OC [Tivozanib]', '100.6%'),
  ('Cn1cnc2c(F)c(Nc3ccc(Br)cc3F)c(C(=O)NOCCO)cc21 [Binimetinib]', '99.7%'),
  ('CN(C)C(=O)c1cc2cnc(Nc3ccc(N4CCNCC4)cn3)nc2n1C1CCCC1 [Ribociclib]', '96.3%'),
  ('COc1cc2nccc(Oc3ccc(NC(=O)C4(C(=O)Nc5ccc(F)cc5)CC4)cc3)c2cc1OC [Cabozantinib]', '101.8%'),
  ('CCC1=C[C@@H]2CN(C1)Cc1c([nH]c3ccccc13)[C@@](C(=O)OC)(c1cc3c(cc1OC)N(C)[C@H]1[C@@](O)(C(=O)OC)[C@H](OC(C)=O)[C@]4(CC)C=CCN5CC[C@]31[C@@H]54)C2 [Vinorelbine]', '56.9%'),
  ('Cc1nc(Nc2ncc(C(=O)Nc3c(C)cccc3Cl)s2)cc(N2CCN(CCO)CC2)n1 [Dasatinib]', '97.9%'),
  ('CCN1CCN(Cc2ccc(Nc3ncc(F)c(-c4cc(F)c5nc(C)n(C(C)C)c5c4)n3)nc2)CC1 [Abemaciclib]', '99.1%');

----------
test: Short-term stability in spiked pooled human plasma (bench-top, 4 °C, 56 °C); conditions: validation standard 2xLLOV
Reported values of Short-time stability (1h, 56°C) Accuracy [%] for individual entries
quantity-kind: Short-time stability (1h, 56°C) Accuracy [%] (%)

INSERT INTO measurements (chem_smiles, data_value) VALUES
  ('CN(C)C(=O)c1cc2cnc(Nc3ccc(N4CCNCC4)cn3)nc2n1C1CCCC1', 49.7),
  ('COc1cc2ncnc(Nc3ccc(F)c(Cl)c3)c2cc1NC(=O)/C=C/CN1CCCCC1', 30.6),
  ('C=CC(=O)Nc1cc(Nc2nccc(-c3cn(C)c4ccccc34)n2)c(OC)cc1N(C)CCN(C)C', 29.9);

----------
experiment: Long-term stability in spiked pooled human plasma; conditions: validation standard 2xLLOV
quantity-kind: Long-term stability, 3 month, -20°C Accuracy [%] (%)

INSERT INTO assay_data (compound, data_value) VALUES
  ('CS(=O)(=O)c1ccc(C(=O)Nc2ccc(Cl)c(-c3ccccn3)c2)c(Cl)c1', 100.1),
  ('O=C1CCC(N2C(=O)c3ccccc3C2=O)C(=O)N1 (centres unmarked) [Thalidomide]', 50.7),
  ('CS(=O)(=O)CCNCc1ccc(-c2ccc3ncnc(Nc4ccc(OCc5cccc(F)c5)c(Cl)c4)c3c2)o1', 72.0),
  ('O=C(c1cc(Cc2n[nH]c(=O)c3ccccc23)ccc1F)N1CCN(C(=O)C2CC2)CC1', 99.8),
  ('O=c1[nH]c(=O)n([C@H]2C[C@H](O)[C@@H](CO)O2)cc1C(F)(F)F', 103.6),
  ('Cc1cn(-c2cc(NC(=O)c3ccc(C)c(Nc4nccc(-c5cccnc5)n4)c3)cc(C(F)(F)F)c2)cn1', 91.6),
  ('Cc1ccc(NC(=O)c2ccc(CN3CCN(C)CC3)cc2)cc1Nc1nccc(-c2cccnc2)n1', 64.1),
  ('Cc1ccc(C(=O)Nc2ccc(CN3CCN(C)CC3)c(C(F)(F)F)c2)cc1C#Cc1cnc2cccnn12', 93.4),
  ('CNC(=O)c1ccc(N2C(=S)N(c3ccc(C#N)c(C(F)(F)F)c3)C(=O)C2(C)C)cc1F [Enzalutamide]', 87.1),
  ('COC(=O)c1ccc2c(c1)NC(=O)/C2=C(\Nc1ccc(N(C)C(=O)CN2CCN(C)CC2)cc1)c1ccccc1', 90.3),
  ('COc1cc2c(Nc3ccc(Br)cc3F)ncnc2cc1OCC1CCN(C)CC1', 101.7),
  ('COc1cc(N2CCC(N3CCN(C)CC3)CC2)ccc1Nc1ncc(Cl)c(Nc2ccccc2P(C)(C)=O)n1', 96.3),
  ('C=CC(=O)Nc1cc(Nc2nccc(-c3cn(C)c4ccccc34)n2)c(OC)cc1N(C)CCN(C)C', 82.8),
  ('CC1(C)CCC(CN2CCN(c3ccc(C(=O)NS(=O)(=O)c4ccc(NCC5CCOCC5)c([N+](=O)[O-])c4)c(Oc4cnc5[nH]ccc5c4)c3)CC2)=C(c2ccc(Cl)cc2)C1', 85.1),
  ('C#Cc1cccc(Nc2ncnc3cc(OCCOC)c(OCCOC)cc23)c1', 106.0),
  ('Nc1cccc2c1CN(C1CCC(=O)NC1=O)C2=O (centres unmarked) [Lenalidomide]', 99.5),
  ('C[C@H]1Oc2cc(cnc2N)-c2c(nn(C)c2C#N)CN(C)C(=O)c2ccc(F)cc21', 91.7),
  ('Cn1cnc2c(F)c(Nc3ccc(Br)cc3F)c(C(=O)NOCCO)cc21', 99.5),
  ('O=C1CN2Cc3c(ccc(Cl)c3Cl)N=C2N1 [Anagrelide]', 110.2),
  ('COC(=O)N[C@@H](C)CNc1nccc(-c2cn(C(C)C)nc2-c2cc(Cl)cc(NS(C)(=O)=O)c2F)n1', 97.4);
